System tested: Adrenergic receptor alpha-2 (Rattus norvegicus, UniProt P22086+P19328+P22909)
Sequence (P22086 whole entry): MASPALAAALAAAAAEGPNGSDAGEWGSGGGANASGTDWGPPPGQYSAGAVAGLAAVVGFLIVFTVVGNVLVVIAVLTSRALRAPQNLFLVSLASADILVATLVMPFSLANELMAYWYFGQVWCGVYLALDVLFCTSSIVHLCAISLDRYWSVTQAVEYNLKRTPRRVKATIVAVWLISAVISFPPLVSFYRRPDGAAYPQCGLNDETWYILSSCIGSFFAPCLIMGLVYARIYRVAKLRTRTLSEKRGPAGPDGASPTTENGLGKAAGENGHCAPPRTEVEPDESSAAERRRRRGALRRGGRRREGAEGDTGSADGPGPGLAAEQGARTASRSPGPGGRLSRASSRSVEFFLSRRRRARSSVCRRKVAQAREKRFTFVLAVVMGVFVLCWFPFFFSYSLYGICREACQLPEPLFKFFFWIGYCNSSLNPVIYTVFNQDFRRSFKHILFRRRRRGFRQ
Sequence (P19328 whole entry): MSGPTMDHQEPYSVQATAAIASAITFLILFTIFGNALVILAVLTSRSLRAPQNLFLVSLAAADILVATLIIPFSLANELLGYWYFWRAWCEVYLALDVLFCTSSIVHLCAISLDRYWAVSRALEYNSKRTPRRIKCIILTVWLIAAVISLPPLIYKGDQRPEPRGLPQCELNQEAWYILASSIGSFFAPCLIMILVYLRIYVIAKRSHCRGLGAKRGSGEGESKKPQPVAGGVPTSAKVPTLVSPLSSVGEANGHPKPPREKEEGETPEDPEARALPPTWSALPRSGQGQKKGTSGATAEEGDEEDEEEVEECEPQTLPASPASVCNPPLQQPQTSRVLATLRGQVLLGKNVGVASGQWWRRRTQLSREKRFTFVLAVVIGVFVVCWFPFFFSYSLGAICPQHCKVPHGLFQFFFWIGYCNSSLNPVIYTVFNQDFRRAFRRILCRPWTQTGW
Sequence (P22909 whole entry): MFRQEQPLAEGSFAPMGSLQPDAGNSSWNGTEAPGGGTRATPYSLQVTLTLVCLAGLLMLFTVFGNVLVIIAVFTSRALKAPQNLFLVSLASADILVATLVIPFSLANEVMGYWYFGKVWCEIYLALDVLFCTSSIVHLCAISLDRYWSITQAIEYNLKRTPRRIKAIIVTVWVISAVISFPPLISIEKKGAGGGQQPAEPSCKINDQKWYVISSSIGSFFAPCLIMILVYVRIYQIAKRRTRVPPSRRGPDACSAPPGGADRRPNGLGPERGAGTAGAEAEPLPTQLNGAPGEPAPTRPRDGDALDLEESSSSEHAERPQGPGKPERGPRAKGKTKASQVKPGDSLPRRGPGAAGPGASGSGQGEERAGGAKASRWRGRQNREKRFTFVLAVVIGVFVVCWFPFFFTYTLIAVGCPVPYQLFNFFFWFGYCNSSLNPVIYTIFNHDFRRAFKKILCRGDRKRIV
Procedure details: Displacement of [3H]clonidine from Sprague-Dawley rat cortex adrenergic alpha 2 receptor
Ki overview
Note: unit µM is implicit; provide only the numeric part.

CCS(=O)(=O)c1ccc2c(c1)CNC(CF)C2 (stereo unspecified) :: 1100
CCCCS(=O)(=O)c1ccc2c(c1)CNC(CF)C2 (stereo unspecified) :: 540

Please look at the following molecule next.
QUERY: Dear colleague, I am looking for the recorded Ki of the following molecule: CCCS(=O)(=O)c1ccc2c(c1)CNC(CF)C2 (stereo unspecified)
RESULT: 690

----------
System tested: Adrenergic receptor alpha-2 (Rattus norvegicus, UniProt P22086+P19328+P22909)
Sequence (P22086 whole entry): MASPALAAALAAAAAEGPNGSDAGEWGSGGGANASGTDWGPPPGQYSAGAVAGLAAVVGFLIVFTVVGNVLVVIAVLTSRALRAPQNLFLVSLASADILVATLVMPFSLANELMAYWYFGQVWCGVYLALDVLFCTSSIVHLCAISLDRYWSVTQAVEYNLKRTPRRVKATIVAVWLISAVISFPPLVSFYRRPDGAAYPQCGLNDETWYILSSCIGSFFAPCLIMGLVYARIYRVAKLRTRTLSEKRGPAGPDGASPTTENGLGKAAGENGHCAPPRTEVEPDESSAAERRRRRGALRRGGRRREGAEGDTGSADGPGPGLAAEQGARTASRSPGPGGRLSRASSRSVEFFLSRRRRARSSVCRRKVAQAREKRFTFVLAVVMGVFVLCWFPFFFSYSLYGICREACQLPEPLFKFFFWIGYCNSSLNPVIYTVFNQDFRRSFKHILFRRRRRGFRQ
Sequence (P19328 whole entry): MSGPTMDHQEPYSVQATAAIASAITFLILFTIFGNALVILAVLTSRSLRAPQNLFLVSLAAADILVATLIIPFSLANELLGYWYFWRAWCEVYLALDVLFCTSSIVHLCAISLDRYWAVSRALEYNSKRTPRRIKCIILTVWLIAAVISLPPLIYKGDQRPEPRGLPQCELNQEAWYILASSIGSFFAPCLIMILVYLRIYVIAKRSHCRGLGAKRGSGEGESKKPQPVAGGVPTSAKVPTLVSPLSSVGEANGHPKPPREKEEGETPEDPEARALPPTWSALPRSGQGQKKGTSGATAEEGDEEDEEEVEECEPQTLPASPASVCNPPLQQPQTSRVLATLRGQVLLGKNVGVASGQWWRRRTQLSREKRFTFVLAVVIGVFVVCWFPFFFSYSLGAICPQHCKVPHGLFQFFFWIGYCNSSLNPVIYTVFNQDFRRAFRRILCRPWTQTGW
Sequence (P22909 whole entry): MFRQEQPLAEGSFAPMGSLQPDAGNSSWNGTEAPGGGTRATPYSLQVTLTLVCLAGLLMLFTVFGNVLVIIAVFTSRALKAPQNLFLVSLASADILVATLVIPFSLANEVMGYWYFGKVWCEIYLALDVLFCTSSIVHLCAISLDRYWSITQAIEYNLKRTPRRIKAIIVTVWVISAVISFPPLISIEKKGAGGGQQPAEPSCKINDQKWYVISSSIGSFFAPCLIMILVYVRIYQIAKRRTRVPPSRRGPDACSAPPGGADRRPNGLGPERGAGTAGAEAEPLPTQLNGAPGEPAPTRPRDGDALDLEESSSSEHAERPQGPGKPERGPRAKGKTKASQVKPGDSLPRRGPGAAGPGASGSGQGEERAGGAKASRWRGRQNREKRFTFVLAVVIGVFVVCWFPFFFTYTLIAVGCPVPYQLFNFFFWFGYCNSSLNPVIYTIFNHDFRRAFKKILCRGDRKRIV
Procedure details: Displacement of [3H]clonidine from Sprague-Dawley rat cortex adrenergic alpha 2 receptor
Assay metric: Ki

O=S(=O)(Cc1ccc(Cl)cc1)c1ccc2c(c1)CNC(CF)C2 (stereo not drawn) :: > 1000 µM

QUERY: Dear colleague, I am looking for the recorded Ki of the following compound: O=S(=O)(CCC(F)(F)F)c1ccc2c(c1)CNC(CF)C2 (stereo not drawn)
RESULT: > 1000 µM

QUERY: Same question, O=S(=O)(CCCC(F)(F)F)c1ccc2c(c1)CNC(CF)C2 (stereo not drawn) this time
RESULT: > 1000 µM
